Data provenance is paper PMC11544713.

ASSAY: Acute intervention: nutrikinetics of plasma metabolites after ingestion of L. citriodora extract (untargeted HPLC-ESI-QTOF-MS)
RUN CONDITIONS: human, in vivo, po, 500 mg
REPORTED PROPERTY: AUC: area under the zero-moment curve

[[record]]
compound = "O=C(O)CCCCCCCCC(=O)O [sebacic acid isomer, sebacic acid]"
reported_result = "141 ± 86 relative chromatographic area/h"


---

ASSAY: Acute intervention: nutrikinetics of plasma metabolites after ingestion of O. europaea extract (untargeted HPLC-ESI-QTOF-MS)
RUN CONDITIONS: human plasma, 500 mg capsule of O. europaea (OE) extract, oral, mean ± SD
Where a name gives a salt, the structure may show the parent alone.
Label 1 (yes) when observed Tmax: time required to reach Cmax is strictly below 1 h; at or above that, label 0 (no).

[[record]]
molecule = "OC[C@H]1O[C@@H](OCc2ccoc2)[C@H](O)[C@@H](O)[C@@H]1O (single isomer, unassigned; isomer 1) [3-furanmethanol glucoside isomer 1, 3-furanmethanol glucoside]"
category = "0 (no)"

[[record]]
molecule = "Oc1cc(O)c2c(c1)O[C@H](c1ccc(O)c(O)c1)[C@H](O)[C@H]2SCc1ccccc1 [4β-benzylthioepicatechin]"
category = "0 (no)"

[[record]]
molecule = "COc1cc(C(=O)O)ccc1OC1OC(C(=O)O)C(O)C(O)C1O (stereo not drawn) [vanillic acid glucuronide]"
category = "0 (no)"

[[record]]
molecule = "CC(=O)Oc1cc2c(c(C)c1OC(C)=O)CC=C1[C@@]2(C)CC[C@@]2(C)C3C[C@](C)(C(=O)O)CC[C@]3(C)CC[C@]12C (stereo partly drawn) [dihydrocelastryl diacetate]"
category = "0 (no)"

[[record]]
molecule = "COc1cc(CCO)ccc1OS(=O)(=O)O [homovanillyl alcohol sulfate]"
category = "0 (no)"

[[record]]
molecule = "O=C(O)CCCCCCCCC(=O)O [decanedioic acid isomer 1, decanedioic acid]"
category = "0 (no)"

[[record]]
molecule = "Cc1cccc(O)c1O"
category = "1 (yes)"

[[record]]
molecule = "COc1cc(-c2oc3cc(O[C@@H]4O[C@@H](C)[C@H](O)[C@@H](O)[C@H]4O)cc(O)c3c(=O)c2O[C@@H]2O[C@H](CO)[C@@H](O)[C@H](O)[C@H]2O)ccc1O"
category = "1 (yes)"

[[record]]
molecule = "COc1cc(C=CC(=O)O)ccc1OS(=O)(=O)O [ferulic acid 4-sulfate]"
category = "0 (no)"

[[record]]
molecule = "O=C(/C=C/C1=CC(=O)C(=O)C=C1)OC1CC(O)(C(=O)O)CC(O)C1O (stereo not drawn)"
category = "1 (yes)"

[[record]]
molecule = "C[C@]12CC[C@@H](O[C@@H]3O[C@H](C(=O)O)[C@@H](O)[C@H](O)[C@H]3O)C[C@@H]1CC[C@@H]1[C@@H]2C(=O)C[C@@]2(C)[C@H]1CC[C@]2(O)[C@@H](O)CO [cortolone-3-glucuronide]"
category = "0 (no)"

[[record]]
molecule = "COC(=O)C1=CO[C@H](O)/C(=C/CO)[C@@H]1CC(=O)OCCc1ccc(O)c(O)c1 [10-hydroxyoleuropein aglycone]"
category = "1 (yes)"

[[record]]
molecule = "O=C(O)CCCCCCCCC(=O)O [decanedioic acid isomer 2, decanedioic acid]"
category = "0 (no)"

